- protocol.details: In vivo pharmacokinetics in mice
- recorded.conditions: mouse, IV 2 mg kg-1
Give measured AUC0-inf/AUC0-last for each item. Keep answers brief.
Answers are plain numbers, in %.

Guide cases for AUC0-inf/AUC0-last, answers given:
>>> measured_result("CN[C@H](CC(C)C)C(=O)N[C@H]1C(=O)N[C@@H](CC(N)=O)C(=O)N[C@H]2C(=O)N[C@H]3C(=O)N[C@H](C(=O)N[C@H](C(=O)O)c4cc(O)cc(O)c4-c4cc3ccc4O)[C@H](O)c3ccc(c(Cl)c3)Oc3cc2cc(c3O[C@@H]2O[C@H](CO)[C@@H](O)[C@H](O)[C@H]2O[C@H]2C[C@](C)(N)[C@H](O)[C@H](C)O2)Oc2ccc(cc2Cl)[C@H]1O")
101
>>> measured_result("CCCCCCCCCCC(=O)N[C@@H](CCCCN)C(=O)N[C@@H](CCCCN)C(=O)N[C@@H](CCCCNC(=O)[C@H]1NC(=O)[C@H]2NC(=O)[C@H](NC(=O)[C@@H]3NC(=O)[C@H](CC(N)=O)NC(=O)[C@H](NC(=O)[C@@H](CC(C)C)NC)[C@H](O)c4ccc(c(Cl)c4)Oc4cc3cc(c4O[C@@H]3O[C@H](CO)[C@@H](O)[C@H](O)[C@H]3O[C@H]3C[C@](C)(N)[C@H](O)[C@H](C)O3)Oc3ccc(cc3Cl)[C@H]2O)c2ccc(O)c(c2)-c2c(O)cc(O)cc21)C(=O)O [Compound 19, nC10CO-KK-K(Vancomycin)-OH]")
100

Okay, next one:
Query block: Entry CCCCCCCCCCC(=O)N[C@@H](CCCCN)C(=O)N[C@@H](CCCCN)C(=O)N[C@@H](CCCCNC(=O)[C@H]1NC(=O)[C@H]2NC(=O)[C@H](NC(=O)[C@@H]3NC(=O)[C@H](CC(N)=O)NC(=O)[C@H](NC(=O)[C@@H](CC(C)C)NC)[C@H](O)c4ccc(c(Cl)c4)Oc4cc3cc(c4O[C@@H]3O[C@H](CO)[C@@H](O)[C@H](O)[C@H]3O[C@H]3C[C@](C)(N)[C@H](O)[C@H](C)O3)Oc3ccc(cc3Cl)[C@H]2O)c2ccc(O)c(c2)-c2c(O)cc(O)cc21)C(N)=O [Compound 21, nC10CO-KK-K(Vancomycin)-NH2] needs its AUC0-inf/AUC0-last filled in; supply it.
Result block: 101

---

- protocol.details: Cytotoxicity MTT assay
- Format: cell-based, human
- recorded.conditions: human
assay.metric: CC50 at 24 h (µM)
Give bare numbers, in µM.

Query block: Entry CCCCCCCCCCC(=O)N[C@@H](CCCCN)C(=O)N[C@@H](CCCCN)C(=O)N[C@@H](CCCCNC(=O)[C@H]1NC(=O)[C@H]2NC(=O)[C@H](NC(=O)[C@@H]3NC(=O)[C@H](CC(N)=O)NC(=O)[C@H](NC(=O)[C@@H](CC(C)C)NC)[C@H](O)c4ccc(c(Cl)c4)Oc4cc3cc(c4O[C@@H]3O[C@H](CO)[C@@H](O)[C@H](O)[C@H]3O[C@H]3C[C@](C)(N)[C@H](O)[C@H](C)O3)Oc3ccc(cc3Cl)[C@H]2O)c2ccc(O)c(c2)-c2c(O)cc(O)cc21)C(=O)O [Compound 19, nC10CO-KK-K(Vancomycin)-OH] needs its CC50 at 24 h filled in; supply it.
Result block: 355
